System: MCF-7 cells
Test: MTT cytotoxicity assay, MCF-7
Type: cell-based
Settings: Homo sapiens, MCF7, 48 h, mean ± SEM of three
measurement type: IC50 (µM)
Kindly answer with a numeric value in µM, unit omitted.

Example results:
Query: Reported IC50, compound O=C(CSc1nnc(-c2c[nH]c3ccccc23)n1-c1ccc(F)cc1)Nc1ccc(NC(=O)CN2CCOCC2)cc1 : ____
Response: 5.05

Query: Item Cc1cc2c(C(C)C)c(O)c(O)c(C=O)c2c(O)c1-c1c(C)cc2c(C(C)C)c(O)c(O)c(C=O)c2c1O [Gossypol, reference compound] has what recorded IC50?
Response: 4.43

Query: Quick check: IC50 of O=C(CSc1nnc(-c2c[nH]c3ccccc23)n1-c1ccc(Cl)c(Cl)c1)Nc1ccc(NC(=O)CN2CCOCC2)cc1 ?
Response: 35.5

Now, please, on to the next compound.
Query: Consider the compound O=C(CSc1nnc(-c2c[nH]c3ccccc23)n1-c1ccc(Cl)cc1)Nc1ccc(NC(=O)CN2CCOCC2)cc1 and give its measured IC50.
Response: 34.4

These entries and their values trace back to paper PMC10572575.
